# measurement.target: DNA polymerase iota (Homo sapiens)
# assay.remarks: qHTS for Inhibitors of Polymerase Iota
# run.parameters: Pol iota fluorescent replication assay, 10 min; series mostly up to 115 µM
Among all 390,000 compounds or so, about 4,000 (1%) were called active. Roughly 7% stayed inconclusive and do not appear here. Calls come from the whole dose curve; as a rule, active = well fitted inhibition curve with a large enough effect; inconclusive = small, poorly fitted or top-dose-only effect, or another doubt; inactive = no such curve, though single readings can be large or run the other way. For the sample, actives were picked, then their nearest neighbours and some compounds at random.
Log the outcome using a class from label 1 for active, label 0 for inactive

Some solved cases for reference:
# molecule, label.class
measured = [
    ("CN(C)c1ccc(/C=N\\Nc2ccc([N+](=O)[O-])cc2[N+](=O)[O-])cc1Cl", "label 0"),
    ("Cc1ccc(CSc2nc3ccsc3c(=O)n2CCC(C)C)cc1", "label 0"),
    ("CC(C)(C)c1ccc(C(=O)C[N+]2(C)CCCc3ccccc32)cc1 (stereo unspecified)", "label 1"),
    ("COc1ccccc1CNC(=O)c1ccc(CS(=O)c2ccccc2Cl)o1 (stereo unspecified)", "label 0"),
]

Req: Called result for O=C(COc1ccc([N+](=O)[O-])cc1)Nc1cccc(C(=O)Nc2ccccc2C(=O)O)c1
Resp: label 0

Req: Repeat with COc1ccc(-c2nc(SCC(=O)N3CCOCC3)n[nH]2)cc1
Resp: label 0
